# Tested on: MOLT-4
# PROTOCOL_TEXT: NCI-60 anticancer screening (SRB)
# Format: cell-based
# CONDITION_LABEL: Homo sapiens; MOLT-4, leukemia; one dose 10 μM; read-out: Growth Inhibition Percentage (GI %)
Listed compounds paired with reported inhibition at 10 µM
READOUT_LABEL: inhibition at 10 µM

compound="CCOC(=O)C1=C(N)N(c2ccccc2)C2=C(C(=O)CC(C)(C)C2)C1c1ccc(N2CCOCC2)cc1 (racemic)" readout_value="< 10%"
compound="CCOC(=O)C1=C(N)N(c2ccccc2)C2=C(C(=O)CC(C)(C)C2)C1c1ccccn1 (racemic) [12a]" readout_value="< 10%"
compound="CCOC(=O)C1=C(N)N(c2ccc(Cl)cc2)C2=C(C(=O)CC(C)(C)C2)C1c1ccccc1Cl (racemic)" readout_value="< 10%"

* * *

# STUDY_SYSTEM: EGFR^L858R (Homo sapiens, UniProt P00533, L858R)
# Sequence (P00533 25-1210 L858R): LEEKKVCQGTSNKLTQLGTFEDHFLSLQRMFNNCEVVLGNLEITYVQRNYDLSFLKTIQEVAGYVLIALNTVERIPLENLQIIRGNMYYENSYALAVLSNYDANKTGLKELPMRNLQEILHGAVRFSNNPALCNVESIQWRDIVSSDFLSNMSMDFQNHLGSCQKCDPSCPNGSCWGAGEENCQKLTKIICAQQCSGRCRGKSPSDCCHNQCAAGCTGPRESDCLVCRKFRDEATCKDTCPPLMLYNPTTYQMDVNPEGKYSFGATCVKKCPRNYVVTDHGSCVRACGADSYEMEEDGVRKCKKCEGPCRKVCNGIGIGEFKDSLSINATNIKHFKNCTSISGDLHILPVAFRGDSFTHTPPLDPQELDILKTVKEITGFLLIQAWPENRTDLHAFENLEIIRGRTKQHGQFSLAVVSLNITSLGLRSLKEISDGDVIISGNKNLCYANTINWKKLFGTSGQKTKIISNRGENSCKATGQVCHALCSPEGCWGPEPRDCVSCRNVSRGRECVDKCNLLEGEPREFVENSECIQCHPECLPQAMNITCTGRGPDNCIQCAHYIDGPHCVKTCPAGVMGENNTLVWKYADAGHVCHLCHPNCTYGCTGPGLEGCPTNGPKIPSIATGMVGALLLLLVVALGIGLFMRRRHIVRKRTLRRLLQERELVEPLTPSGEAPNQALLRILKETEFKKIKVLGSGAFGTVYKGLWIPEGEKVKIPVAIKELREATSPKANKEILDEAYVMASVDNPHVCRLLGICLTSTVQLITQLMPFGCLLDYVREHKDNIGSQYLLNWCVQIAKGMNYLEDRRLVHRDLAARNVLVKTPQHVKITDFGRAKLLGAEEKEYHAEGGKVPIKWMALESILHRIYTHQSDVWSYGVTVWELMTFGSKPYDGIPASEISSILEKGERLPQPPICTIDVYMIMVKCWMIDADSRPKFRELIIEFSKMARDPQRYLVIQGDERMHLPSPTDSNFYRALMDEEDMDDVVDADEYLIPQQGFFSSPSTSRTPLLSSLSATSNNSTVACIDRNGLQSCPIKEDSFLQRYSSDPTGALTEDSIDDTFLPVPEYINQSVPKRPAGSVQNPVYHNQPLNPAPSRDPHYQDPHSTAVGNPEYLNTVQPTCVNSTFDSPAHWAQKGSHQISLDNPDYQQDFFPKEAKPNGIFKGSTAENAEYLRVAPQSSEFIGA
# PROTOCOL_TEXT: biochemical
pIC50: −log10 of the molar value.
READOUT_LABEL: pIC50

compound="CCOC(=O)C1=C(N)N(c2ccccc2)C2=C(C(=O)CC(C)(C)C2)C1c1cccc(Cl)c1Cl (racemic) [10a]" readout_value=6.31
compound="CCOC(=O)C1=C(N)N(c2ccccc2)C2=C(C(=O)CC(C)(C)C2)C1c1ccccc1Cl (racemic)" readout_value=6.31
compound="CCOC(=O)C1=C(N)N(c2ccccc2)C2=C(C(=O)CC(C)(C)C2)C1c1ccc(Cl)cc1 (racemic)" readout_value=6.09
compound="CCOC(=O)C1=C(N)N(c2ccc(Cl)cc2)C2=C(C(=O)CC(C)(C)C2)C1c1ccc(Cl)cc1 (racemic)" readout_value=6.45
compound="CCOC(=O)C1=C(N)N(c2ccc(Cl)cc2)C2=C(C(=O)CC(C)(C)C2)C1c1ccccc1Br (racemic)" readout_value=6.32
compound="CCOC(=O)C1=C(N)N(c2ccc(Cl)cc2)C2=C(C(=O)CC(C)(C)C2)C1c1ccc(Cl)cc1Cl (racemic) [10d]" readout_value=7.29
compound="CCOC(=O)C1=C(N)N(c2ccccc2)C2=C(C(=O)CC(C)(C)C2)C1c1ccc(Cl)cc1Cl (racemic) [10c]" readout_value=6.21

* * *

Listed molecules paired with reported inhibition at 10 µM
# Test system: SN 12C
# PROTOCOL_TEXT: NCI-60 anticancer screening (SRB)
# Type: cell-based
# CONDITION_LABEL: Homo sapiens, SN12C; SN 12C, renal cancer; one dose 10 μM; read-out: Growth Inhibition Percentage (GI %)
READOUT_LABEL: inhibition at 10 µM

molecule="CCOC(=O)C1=C(N)N(c2ccc(Cl)cc2)C2=C(C(=O)CC(C)(C)C2)C1c1ccc(N2CCOCC2)cc1 (racemic)" readout_value="< 10%"
molecule="CCOC(=O)C1=C(N)N(c2ccccc2)C2=C(C(=O)CC(C)(C)C2)C1c1ccc(N2CCOCC2)cc1 (racemic)" readout_value="< 10%"
molecule="CCOC(=O)C1=C(N)N(c2ccc(Cl)cc2)C2=C(C(=O)CC(C)(C)C2)C1c1ccc(Cl)cc1 (racemic)" readout_value="< 10%"
molecule="CCOC(=O)C1=C(N)N(c2ccc(C)cc2)C2=C(C(=O)CC(C)(C)C2)C1c1cccnc1 (racemic) [12e]" readout_value="< 10%"
molecule="CCOC(=O)C1=C(N)N(c2ccc(Cl)cc2)C2=C(C(=O)CC(C)(C)C2)C1c1cccc(Cl)c1Cl (racemic) [10b]" readout_value=35%
molecule="CCOC(=O)C1=C(N)N(c2ccc(Cl)cc2)C2=C(C(=O)CC(C)(C)C2)C1c1ccc(OC)cc1 (racemic)" readout_value="< 10%"
molecule="CCOC(=O)C1=C(N)N(c2ccccc2)C2=C(C(=O)CC(C)(C)C2)C1c1ccccc1Cl (racemic)" readout_value=25%

* * *

Listed compounds paired with reported melting point
READOUT_LABEL: melting point

compound="CCOC(=O)C1=C(N)N(c2ccc(C)cc2)C2=C(C(=O)CC(C)(C)C2)C1c1cccnc1 (racemic) [12e]" readout_value="261 to 263 °C"
compound="CCOC(=O)C1=C(N)N(c2ccccc2)C2=C(C(=O)CC(C)(C)C2)C1c1ccc(N2CCOCC2)cc1 (racemic) [8l]" readout_value="193 to 195 °C"
compound="CCOC(=O)C1=C(N)N(c2ccc(Cl)cc2)C2=C(C(=O)CC(C)(C)C2)C1c1ccc(OC)cc1 (racemic) [8h]" readout_value="255 to 257 °C"
compound="CCOC(=O)C1=C(N)N(c2ccc(Cl)cc2)C2=C(C(=O)CC(C)(C)C2)C1c1ccccn1 (racemic) [12c]" readout_value="256 to 258 °C"
compound="CCOC(=O)C1=C(N)N(c2ccc(C)cc2)C2=C(C(=O)CC(C)(C)C2)C1c1ccccc1Cl (racemic) [6b]" readout_value="240 to 242 °C"
compound="CCOC(=O)C1=C(N)N(c2ccccc2)C2=C(C(=O)CC(C)(C)C2)C1c1cccnc1 (racemic) [12d]" readout_value="215 to 217 °C"
compound="CCOC(=O)C1=C(N)N(c2ccc(Cl)cc2)C2=C(C(=O)CC(C)(C)C2)C1c1cccc(Cl)c1Cl (racemic) [10b]" readout_value="250 to 252 °C"
compound="CCOC(=O)C1=C(N)N(c2ccccc2)C2=C(C(=O)CC(C)(C)C2)C1c1ccccc1Cl (racemic) [6a]" readout_value="168 to 170 °C"
compound="CCOC(=O)C1=C(N)N(c2ccccc2)C2=C(C(=O)CC(C)(C)C2)C1c1ccccc1OC (racemic) [6g]" readout_value="243 to 245 °C"
compound="CCOC(=O)C1=C(N)N(c2ccccc2)C2=C(C(=O)CC(C)(C)C2)C1c1ccc([N+](=O)[O-])cc1 (racemic) [8i]" readout_value="164 to 166 °C"
compound="CCOC(=O)C1=C(N)N(c2ccc(Cl)cc2)C2=C(C(=O)CC(C)(C)C2)C1c1cccnc1 (racemic) [12f]" readout_value="261 to 263 °C"
compound="CCOC(=O)C1=C(N)N(c2ccc(Cl)cc2)C2=C(C(=O)CC(C)(C)C2)C1c1ccccc1Br (racemic) [6f]" readout_value="210 to 212 °C"
compound="CCOC(=O)C1=C(N)N(c2ccc(C)cc2)C2=C(C(=O)CC(C)(C)C2)C1c1ccc([N+](=O)[O-])cc1 (racemic) [8j]" readout_value="270 to 272 °C"
compound="CCOC(=O)C1=C(N)N(c2ccc(C)cc2)C2=C(C(=O)CC(C)(C)C2)C1c1ccc(Cl)cc1 (racemic) [8d]" readout_value="205 to 207 °C"
compound="CCOC(=O)C1=C(N)N(c2ccc(Cl)cc2)C2=C(C(=O)CC(C)(C)C2)C1c1ccc([N+](=O)[O-])cc1 (racemic) [8k]" readout_value="198 to 200 °C"

* * *

# System: OVCAR-4
# PROTOCOL_TEXT: NCI-60 anticancer screening (SRB)
# Assay type: cell-based
# CONDITION_LABEL: Homo sapiens; OVCAR-4, ovarian cancer; one dose 10 μM; read-out: Growth Inhibition Percentage (GI %)
READOUT_LABEL: inhibition at 10 µM (%)

compound="CCOC(=O)C1=C(N)N(c2ccccc2)C2=C(C(=O)CC(C)(C)C2)C1c1cccc(Cl)c1Cl (racemic) [10a]" value_qualifier== readout_value=34
compound="CCOC(=O)C1=C(N)N(c2ccc(C)cc2)C2=C(C(=O)CC(C)(C)C2)C1c1ccc(OC)cc1 (racemic) [8g]" value_qualifier=< readout_value=10
compound="CCOC(=O)C1=C(N)N(c2ccc(Cl)cc2)C2=C(C(=O)CC(C)(C)C2)C1c1ccc(Cl)cc1 (racemic) [8e]" value_qualifier== readout_value=54
compound="CCOC(=O)C1=C(N)N(c2ccc(Cl)cc2)C2=C(C(=O)CC(C)(C)C2)C1c1ccccc1Cl (racemic) [6c]" value_qualifier== readout_value=32
compound="CCOC(=O)C1=C(N)N(c2ccc(Cl)cc2)C2=C(C(=O)CC(C)(C)C2)C1c1ccccn1 (racemic) [12c]" value_qualifier=< readout_value=10
compound="CCOC(=O)C1=C(N)N(c2ccc(Cl)cc2)C2=C(C(=O)CC(C)(C)C2)C1c1ccc(Cl)cc1Cl (racemic) [10d]" value_qualifier== readout_value=56
compound="CCOC(=O)C1=C(N)N(c2ccc(Cl)cc2)C2=C(C(=O)CC(C)(C)C2)C1c1ccc(OC)cc1 (racemic) [8h]" value_qualifier=< readout_value=10

* * *

# Test system: LOX IMVI
# PROTOCOL_TEXT: NCI-60 anticancer screening (SRB)
# Format: cell-based
# CONDITION_LABEL: Homo sapiens, melanoma, one dose 10 μM, read-out: Growth Inhibition Percentage (GI %)
READOUT_LABEL: inhibition at 10 µM

molecule="CCOC(=O)C1=C(N)N(c2ccc(Cl)cc2)C2=C(C(=O)CC(C)(C)C2)C1c1ccc(Cl)cc1 (racemic)" readout_label="inhibition at 10 µM" readout_value=11%
molecule="CCOC(=O)C1=C(N)N(c2ccc(C)cc2)C2=C(C(=O)CC(C)(C)C2)C1c1ccccc1OC (racemic)" readout_label="inhibition at 10 µM" readout_value="< 10%"
molecule="CCOC(=O)C1=C(N)N(c2ccc(C)cc2)C2=C(C(=O)CC(C)(C)C2)C1c1ccccc1Br (racemic)" readout_label="inhibition at 10 µM" readout_value=11%
molecule="CCOC(=O)C1=C(N)N(c2ccc(C)cc2)C2=C(C(=O)CC(C)(C)C2)C1c1ccc(OC)cc1 (racemic)" readout_label="inhibition at 10 µM" readout_value="< 10%"
molecule="CCOC(=O)C1=C(N)N(c2ccccc2)C2=C(C(=O)CC(C)(C)C2)C1c1cccc(Cl)c1Cl (racemic) [10a]" readout_label="inhibition at 10 µM" readout_value=22%
molecule="CCOC(=O)C1=C(N)N(c2ccccc2)C2=C(C(=O)CC(C)(C)C2)C1c1ccc(OC)cc1 (racemic)" readout_label="inhibition at 10 µM" readout_value="< 10%"
molecule="CCOC(=O)C1=C(N)N(c2ccc(Cl)cc2)C2=C(C(=O)CC(C)(C)C2)C1c1ccccn1 (racemic) [12c]" readout_label="inhibition at 10 µM" readout_value="< 10%"

Value source: paper PMC10408569
